SUBJECT OF TEST: human M4 receptor (Homo sapiens (Human), UniProt P08173)
Sequence (P08173 whole entry): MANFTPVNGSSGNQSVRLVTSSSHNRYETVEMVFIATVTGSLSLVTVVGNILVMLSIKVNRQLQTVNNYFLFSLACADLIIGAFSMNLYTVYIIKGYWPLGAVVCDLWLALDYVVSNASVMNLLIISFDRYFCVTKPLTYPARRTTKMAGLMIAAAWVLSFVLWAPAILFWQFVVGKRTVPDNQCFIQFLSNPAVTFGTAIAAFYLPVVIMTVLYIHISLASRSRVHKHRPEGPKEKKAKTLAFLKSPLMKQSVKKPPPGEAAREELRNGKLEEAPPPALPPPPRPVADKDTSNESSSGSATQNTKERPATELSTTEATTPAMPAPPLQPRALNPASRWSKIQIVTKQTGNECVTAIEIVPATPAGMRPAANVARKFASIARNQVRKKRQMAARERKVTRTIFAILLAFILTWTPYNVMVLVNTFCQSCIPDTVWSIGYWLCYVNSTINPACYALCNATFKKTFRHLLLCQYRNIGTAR
RUN DESCRIPTION: Radioligand (tritiated N-methylscopolamine) binding assay, M4
CONDITIONS: Ki against the M4 receptor; membranes from CHO cells expressing human M4; tritiated N-methylscopolamine 1.5 nM; read-out: Ki
EXPERIMENTAL ENDPOINT: Ki

Sample answers from the record:
{"columns": ["COMPOUND", "Ki"],
 "data": [
  ["C[C@@H]1CN(C(=O)NCCC2CCN(Cc3ccccc3)CC2)CCN1c1cc(F)c(F)c(F)c1", "< 0.01 µM"],
  ["Cc1nc(CN2CCC(CCNC(=O)N3CCN(c4cc(F)c(F)c(F)c4)C[C@H]3C)CC2)cs1", "0.01 to 0.1 µM"],
  ["C[C@H]1CN(c2ncc(C(F)(F)F)cn2)CCC1C(=O)NCCC1CCN(Cc2ccccc2)CC1 (stereo partly drawn)", "< 0.01 µM"],
  ["N#Cc1cc(N2CCN(C(=O)NCCC3CCN(Cc4ccccc4)CC3)CC2)ccc1F", "0.1 to 1 µM"],
  ["COc1ccc(CN2CCC(CCNC(=O)N3[C@H](C)CN(c4ncc(C#N)cn4)C[C@@H]3C)CC2)cc1", "0.01 to 0.1 µM"]
]}

Quick check: Ki on human M4 receptor (Homo sapiens (Human), UniProt P08173), item "O=C(NCCC1CCN(Cc2ccccc2)CC1)C1CCN(c2cc(F)cc(F)c2)CC1" ?
< 0.01 µM

Please provide the recorded Ki for "Cc1nc(-c2ccc(F)nc2)sc1C(=O)NCCC1CCN(Cc2ccccc2)CC1" , tested on human M4 receptor (Homo sapiens (Human), UniProt P08173).
0.1 to 1 µM

Please tell me: Ki of "C[C@H]1CN(C(=O)NCCC2CCN(Cc3ccccc3)CC2)CCN1c1cc(F)c(F)c(F)c1" , system human M4 receptor (Homo sapiens (Human), UniProt P08173)?
< 0.01 µM
